The entries below come with measured T/C values attached.
# Tested on: L1210 leukemia ip in BDF1 mice, survival T/C
# TEST SUMMARY: NCI In Vivo Anticancer Drug Screen. Data for tumor model L1210 Leukemia (intraperitoneal) in B6D2F1 (BDF1) mice
# ASSAY SETUP: endpoint: mean survival time; dose: 400.0 mg/kg/injection; schedule: Q04DX003 (ip); vehicle: saline; higher = longer survival
Toxic doses and inconclusive results are not listed.

IN: // returns reported T/C for input `CCCCCCCCCCCCCCCCCCCCCCCCCC(=O)OCCCCCCCCCCCCCC`
OUT: 98 % of control

---

# Tested on: L1210 leukemia ip in BDF1 mice, survival T/C
# TEST SUMMARY: NCI In Vivo Anticancer Drug Screen. Data for tumor model L1210 Leukemia (intraperitoneal) in B6D2F1 (BDF1) mice
# ASSAY SETUP: endpoint: mean survival time; dose: 100.0 mg/kg/injection; schedule: Q01DX001 (ip); vehicle: Klucel (hydroxypropylcellulose) (HPC); higher = longer survival
Inconclusive results and toxic doses are left out.
The entries below come with measured T/C values attached.

# annotated cases, reported T/C shown
- COMPOUND: "CCOC(=O)c1[nH]c(C(=O)O)c(CCC(=O)OC)c1C"
  T/C: "93 % of control"
- COMPOUND: "COC(=O)C1CCC(NC(=O)N(CCCl)N=O)CC1 (centres undefined)"
  T/C: "104 % of control"
- COMPOUND: "COc1c(NC(=O)CC(C)=O)ccc2c(C)cc(=O)n(C)c12"
  T/C: "99 % of control"
- COMPOUND: "C1=Cc2c3c(c4c(c2C1)C=CC4)CC=C3"
  T/C: "101 % of control"

IN: T/C of `Nc1cccc(CCCCc2ccc(Cl)cc2Cl)c1` on L1210 leukemia ip in BDF1 mice, survival T/C?
OUT: 97 % of control

IN: T/C of `O=C1C=C(C(c2ccccc2)c2ccccc2)C(=O)C=C1NS(=O)(=O)c1ccccc1` on L1210 leukemia ip in BDF1 mice, survival T/C?
OUT: 95 % of control

IN: T/C of `O=c1ncccn1Cc1ccccc1` on L1210 leukemia ip in BDF1 mice, survival T/C?
OUT: 112 % of control

---

The entries below come with measured T/C values attached.
# Tested on: L1210 leukemia ip in BDF1 mice, survival T/C
# TEST SUMMARY: NCI In Vivo Anticancer Drug Screen. Data for tumor model L1210 Leukemia (intraperitoneal) in B6D2F1 (BDF1) mice
# ASSAY SETUP: endpoint: mean survival time; dose: 100.0 mg/kg/injection; schedule: Q01DX009 (ip); vehicle: gum acacia; higher = longer survival
Toxic doses and inconclusive results are not listed.

# annotated cases, reported T/C shown
- COMPOUND: "COc1ccc(C)cc1N=Nc1cc(C)ccc1OC"
  STUDY SYSTEM: "L1210 leukemia ip in BDF1 mice, survival T/C"
  TEST VALUE: "100 % of control"
- COMPOUND: "O=C(Nc1ccccc1C(F)(F)F)OCc1ccco1"
  STUDY SYSTEM: "L1210 leukemia ip in BDF1 mice, survival T/C"
  TEST VALUE: "100 % of control"
- COMPOUND: "Oc1ccccc1C=NCCCN=Cc1ccccc1O"
  STUDY SYSTEM: "L1210 leukemia ip in BDF1 mice, survival T/C"
  TEST VALUE: "104 % of control"

IN: // returns reported T/C for input `Cc1c(/C=C(\C#N)c2ccc([N+](=O)[O-])cc2)c(=O)n(-c2ccccc2)n1C`
OUT: 93 % of control

IN: // returns reported T/C for input COc1cccc(C2NC(=S)N3C(c4cccc(OC)c4)NC(=S)N23)c1 (stereo not given)
OUT: 108 % of control

---

# Tested on: L1210 leukemia ip in BDF1 mice, survival T/C
# TEST SUMMARY: NCI In Vivo Anticancer Drug Screen. Data for tumor model L1210 Leukemia (intraperitoneal) in B6D2F1 (BDF1) mice
# ASSAY SETUP: endpoint: mean survival time; dose: 50.0 mg/kg/injection; schedule: Q04DX003 (ip); vehicle: saline; higher = longer survival
Toxic doses and inconclusive results are not listed.
READOUT LABEL: T/C

- COMPOUND: "C=CC[n+]1cccc2ccccc21"
  TEST VALUE: "98 % of control"
- COMPOUND: "CCCCN(CCCC)CCCC#N"
  TEST VALUE: "100 % of control"
- COMPOUND: "CN(C)C1CCN(Cc2ccccc2)CC1"
  TEST VALUE: "100 % of control"
- COMPOUND: "CSc1nc(C)cc(SC(=N)N)n1"
  TEST VALUE: "97 % of control"
- COMPOUND: "NC1CC(N)CC(N)C1 (stereo unspecified)"
  TEST VALUE: "99 % of control"

IN: // returns reported T/C for input `CCCCCCCCCCCCNC(=O)c1ccc[n+](C)c1`
OUT: 96 % of control

IN: // returns reported T/C for input CCCC(Cc1ccccc1)N1CCCC1 (stereo unspecified)
OUT: 95 % of control

IN: // returns reported T/C for input `O=C1NCCO1`
OUT: 97 % of control

IN: // returns reported T/C for input `O=C(O)c1c(Br)c(Br)c(Br)c(Br)c1-c1c2ccc(=O)c(O)c-2oc2c(O)c(O)ccc12`
OUT: 105 % of control

IN: // returns reported T/C for input `CCOC(=O)/C=C/C(=O)O.[Co]`
OUT: 116 % of control

IN: // returns reported T/C for input CN(Cc1ccccc1)C(Cc1c[nH]c2ccccc12)C(=O)O (stereo unspecified)
OUT: 108 % of control

IN: // returns reported T/C for input `CN1C(=O)OC(C)(C)C1=O`
OUT: 109 % of control

IN: // returns reported T/C for input `Nc1nc2nc(CC(=O)C(=O)O)c(=O)[nH]c2c(=O)[nH]1`
OUT: 104 % of control

IN: // returns reported T/C for input `CCCCCC[Se]CCCCCC`
OUT: 97 % of control

IN: // returns reported T/C for input C1CCN(CCC2CCCCN2)CC1 (stereo unspecified)
OUT: 94 % of control

IN: // returns reported T/C for input `COc1nc(=S)n2[nH]cnc2n1`
OUT: 102 % of control

---

# Test system: L1210 leukemia ip in BDF1 mice, survival T/C
# TEST SUMMARY: NCI In Vivo Anticancer Drug Screen. Data for tumor model L1210 Leukemia (intraperitoneal) in B6D2F1 (BDF1) mice
# ASSAY SETUP: endpoint: mean survival time; dose: 100.0 mg/kg/injection; schedule: Q04DX003 (ip); vehicle: Klucel (hydroxypropylcellulose) (HPC); higher = longer survival
# Protocol: The antitumor activity of compounds was measured in mice bearing transplantable tumors. Survival or tumor size were measured and the results are expressed as the measurement made in the treated group (T) divided by the measurement made in the vehicle treated control group (C). The tumor model used in this assay is L1210 Leukemia (intraperitoneal) in B6D2F1 (BDF1) mice
Toxic doses and inconclusive results are not listed.
READOUT LABEL: T/C

# annotated cases, reported T/C shown
- COMPOUND: "Cc1ncc(C(C)(O)c2ccc(Cl)cc2)n1Cc1ccccc1 (centres undefined)"
  STUDY SYSTEM: "L1210 leukemia ip in BDF1 mice, survival T/C"
  T/C: "92 % of control"
- COMPOUND: "O=C(O)c1cc(Cl)c(Cl)s1"
  STUDY SYSTEM: "L1210 leukemia ip in BDF1 mice, survival T/C"
  T/C: "103 % of control"
- COMPOUND: "CC(C)(Cl)/N=N/C(C)(C)Cl"
  STUDY SYSTEM: "L1210 leukemia ip in BDF1 mice, survival T/C"
  T/C: "98 % of control"

As a next step, examine the compound that follows.
IN: // returns reported T/C for input CC(Cc1ccccc1)NC(=O)/C=C/C(=O)O (centres undefined)
OUT: 103 % of control

---

# Tested on: L1210 leukemia ip in BDF1 mice, survival T/C
# TEST SUMMARY: NCI In Vivo Anticancer Drug Screen. Data for tumor model L1210 Leukemia (intraperitoneal) in B6D2F1 (BDF1) mice
# ASSAY SETUP: endpoint: mean survival time; dose: 100.0 mg/kg/injection; schedule: Q01DX001 (ip); vehicle: Klucel (hydroxypropylcellulose) (HPC); higher = longer survival
Toxic doses and inconclusive results are not listed.
READOUT LABEL: T/C

# annotated cases, reported T/C shown
- COMPOUND: "CCCCCCCCCOc1ccc(C=O)cc1OC"
  STUDY SYSTEM: "L1210 leukemia ip in BDF1 mice, survival T/C"
  T/C: "93 % of control"
- COMPOUND: "CC(C(CC(=O)c1ccccc1)c1ccccc1)[N+](=O)[O-] (configuration not stated)"
  STUDY SYSTEM: "L1210 leukemia ip in BDF1 mice, survival T/C"
  T/C: "124 % of control"

IN: // returns reported T/C for input `Clc1ccc2c(c1)/C(=C\c1ccnc3ccccc13)c1cc(Cl)cc(Cl)c1-2`
OUT: 94 % of control

IN: // returns reported T/C for input `c1ccc(-c2nc3ccccn3n2)cc1`
OUT: 101 % of control

IN: // returns reported T/C for input CC1CC=CCC1/C=N/NC(N)=O (configuration not stated)
OUT: 107 % of control

IN: // returns reported T/C for input `O=C(NCCc1ccc([N+](=O)[O-])cc1)c1ccc(S(=O)(=O)F)cc1`
OUT: 103 % of control

IN: // returns reported T/C for input NC(C(=O)O)c1cccc(Cl)c1 (configuration not stated)
OUT: 123 % of control
